target: Hexose transporter 1 (Plasmodium falciparum); assay: ST_JUDE_LEISH: Cytotoxicity at 2uM final concentration against transgenic Leishmania Mexicana promastigotes LmPfHT that are glucose transport deficient and complemented with the Plasmodium falciparum hexose transporter. Activity is measured by DNA content using SYBR green in vitro; assay type: functional
Readout Label: inhibition

compound="CC(Cc1ccc(NC(=O)c2ccc(CC(C)NCc3ccc(Cl)cc3)cc2)cc1)NCCc1cccc(Cl)c1 (centres undefined)" readout_label=inhibition test_result=6.78%
compound=COc1cc(C(F)(F)F)cc2[nH]c(CNCCCNc3nc4ccccc4[nH]3)cc12 readout_label=inhibition test_result=6.5%
compound=CCCCNC(=O)[C@@H]1CCCN1C(=O)c1ccc(O)c(-c2ccc(Cl)c(Cl)c2)c1 readout_label=inhibition test_result=0.27%
compound=Cc1cc(N(C)C)nc(Nc2ccc(NC(=O)c3ccccc3Cl)cc2)n1 readout_label=inhibition test_result=5.72%

Prompt: // lookup inhibition for O=C(NCCN1CCCc2ccccc21)C1CCN(c2nc(-c3ccc(Cl)cc3)no2)CC1
Completion: 2.11%

Prompt: Value lookup for inhibition; key = O=C(NCCCCN1CCC(c2ccc(Br)cc2)CC1)c1ccc(NC(=O)c2ccc(Cl)cc2)cc1
Completion: 0.2%

Prompt: Could you tell me which inhibition is on file for N#Cc1cccc(C(=O)NC2CCN(c3ccnc(Nc4ccc(F)cc4)n3)C2)c1 (centres undefined) ?
Completion: 2.47%

Prompt: inhibition for Cc1cc(N2CCCC2)nc(Nc2ccc(NC(=O)C3CCCC3)cc2)n1 ?
Completion: 1.16%

Prompt: // inhibition lookup, key: CCc1cn(C)c2c(N3CCCC3=O)cc(C(=O)N[C@@H](Cc3ccccc3)[C@H](O)CNCc3cccc(OC)c3)cc12
Completion: 2.2%

Prompt: Field request: inhibition | item: CN1CCN(c2ccc(Nc3nccc(-c4cnn5ncccc45)n3)cc2Cl)CC1
Completion: 95.1%

Prompt: Dear colleague, I am looking for the recorded inhibition of the following compound: CC(C)c1ccc(NC(=O)c2ccc(C(=O)NC3CCN(CC4CCCCC4)C3)cc2)cc1 (centres undefined)
Completion: 4.18%

* * *

molecular target: Glucose transporter (Leishmania mexicana) (UniProt O61059); test: ST_JUDE_LEISH: Cytotoxicity at 2uM final concentration against transgenic Leishmania Mexicana promastigotes LmGT2 that are glucose transport deficient and complemented with the L. Mexicana glucose transporter 2. Activity is measured by DNA content using SYBR green in vitro; format: functional
# key: entry, value: inhibition
Kindly answer with a numeric value in %, unit omitted.

Prompt: So what does the record say about inhibition for CCc1c(CCNCC/C=C/CCNCCc2ccc(OC)c(OC)c2CC)ccc(OC)c1OC ?
Completion: -1.26

* * *

target: Hexose transporter 1 (Plasmodium falciparum); experiment: ST_JUDE_LEISH: Cytotoxicity at 2uM final concentration against transgenic Leishmania Mexicana promastigotes LmPfHT that are glucose transport deficient and complemented with the Plasmodium falciparum hexose transporter. Activity is measured by DNA content using SYBR green in vitro; format: functional
Listed here: items and their measured inhibition.
Note: unit % is implicit; provide only the numeric part.

compound=Nc1ccc(-c2nc3cc(Cc4ccc5[nH]c(-c6ccc(N)cc6)nc5c4)ccc3[nH]2)cc1 unit_label=% test_result=-2.2

Prompt: Record lookup: for Hexose transporter 1 (Plasmodium falciparum), what inhibition belongs to COc1cc(Cc2cnc(N)nc2N)cc(OCCNC(=O)OCc2ccccc2)c1OC ?
Completion: -1.55

Prompt: Hi! What's the reported inhibition for O=C(Nc1cccc(CN2CCCN(Cc3ccc(O)cc3)CC2)c1)c1ccc2ccccc2c1 on Hexose transporter 1 (Plasmodium falciparum)?
Completion: 4.08

Prompt: Missing value: inhibition, Hexose transporter 1 (Plasmodium falciparum), entry CC(C)N1CCC(N(Cc2ccc(-c3ccc(C(F)(F)F)cc3)cc2)C(=O)Cn2c(SCc3cccc(F)c3F)cc(=O)c3ccccc32)CC1 . Fill in?
Completion: 1.73

Prompt: # query: inhibition | item CCCCCn1c(Sc2ccc(C#N)c([N+](=O)[O-])c2)nnc1-c1ccccc1 | system: Hexose transporter 1 (Plasmodium falciparum)
Completion: 9.62

Prompt: What is its inhibition for Hexose transporter 1 (Plasmodium falciparum)? Entry: CCCCC(CC)NC(=O)[C@H]1CNCCN1C(=O)CCCc1ccccc1 (stereo partly drawn)
Completion: 1.94

Prompt: Lab request: please report inhibition under test system Hexose transporter 1 (Plasmodium falciparum) for CS(=O)(=O)CCNC(=O)c1ccc(-c2cc3c(Nc4ccc5c(cnn5Cc5ccccc5)c4)ncnc3cn2)o1
Completion: 3.93

Prompt: Notebook: pull reported inhibition for Hexose transporter 1 (Plasmodium falciparum), entry CCN1CCC(N(Cc2ccc(-c3ccc(C(F)(F)F)cc3)cc2)C(=O)Cn2c(CCc3cccc(F)c3F)cc(=O)c3cn(C)nc32)CC1
Completion: 1.08

Cited source for all entries: ChEMBL document CHEMBL3433997
